- tested on: Mast/stem cell growth factor receptor Kit (Homo sapiens, UniProt P10721)
- Sequence (P10721 whole entry): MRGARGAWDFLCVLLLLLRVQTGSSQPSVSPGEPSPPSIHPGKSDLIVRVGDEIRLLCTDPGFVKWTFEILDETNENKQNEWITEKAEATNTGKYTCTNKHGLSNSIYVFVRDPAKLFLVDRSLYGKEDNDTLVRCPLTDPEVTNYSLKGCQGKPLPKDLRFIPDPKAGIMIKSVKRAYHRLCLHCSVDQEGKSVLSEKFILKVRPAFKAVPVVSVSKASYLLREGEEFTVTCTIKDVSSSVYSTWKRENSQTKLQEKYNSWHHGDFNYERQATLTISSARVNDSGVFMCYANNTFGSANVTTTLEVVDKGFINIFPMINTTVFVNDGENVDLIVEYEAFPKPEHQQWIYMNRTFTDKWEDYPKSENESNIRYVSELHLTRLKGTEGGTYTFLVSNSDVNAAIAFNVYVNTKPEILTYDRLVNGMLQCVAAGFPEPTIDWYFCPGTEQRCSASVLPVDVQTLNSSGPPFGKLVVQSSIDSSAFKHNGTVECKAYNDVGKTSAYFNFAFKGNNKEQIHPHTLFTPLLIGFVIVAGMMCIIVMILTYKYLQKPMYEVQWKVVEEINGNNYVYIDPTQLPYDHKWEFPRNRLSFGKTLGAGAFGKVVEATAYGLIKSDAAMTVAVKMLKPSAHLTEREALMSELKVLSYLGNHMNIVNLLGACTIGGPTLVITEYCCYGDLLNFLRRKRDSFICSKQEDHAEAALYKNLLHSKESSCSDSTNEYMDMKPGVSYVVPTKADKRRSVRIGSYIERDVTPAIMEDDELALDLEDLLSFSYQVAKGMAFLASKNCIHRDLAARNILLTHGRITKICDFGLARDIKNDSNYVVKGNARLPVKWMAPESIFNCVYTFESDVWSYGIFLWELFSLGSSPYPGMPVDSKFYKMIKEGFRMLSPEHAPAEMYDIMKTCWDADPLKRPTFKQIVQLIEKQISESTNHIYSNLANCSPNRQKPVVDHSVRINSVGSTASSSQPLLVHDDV
observation type: IC50 (nM)
Number in nM, nothing else.

The measured IC50 that `O=C(Nc1ccc(Oc2ccnc3[nH]ccc23)c(F)c1)c1nnn(-c2ccc(F)cc2)c1C(F)(F)F` showed for Mast/stem cell growth factor receptor Kit (Homo sapiens, UniProt P10721) is 325

* * *

Let's look at some compounds and their measured IC50.
- Tested on: MCF7
- assay name: Cytotoxicity against human MCF7 cells assessed as reduction in cell growth after 72 hrs by MTT assay
- Type: functional, cell-based
- measurement parameters: MCF7, 72 h
Unit nM implied. Number only.

Recorded results for 4 compounds are shown here.
{"sample smiles": "Cc1c(C(=O)Nc2ccc(Oc3ccnc4[nH]ccc34)cc2)nnn1-c1ccc(F)c(Cl)c1", "IC50 / nM": 6310}
{"sample smiles": "Cc1c(C(=O)Nc2ccc(Oc3ccnc4[nH]ccc34)cc2)nnn1-c1ccc(F)cc1", "IC50 / nM": 390}
{"sample smiles": "Cc1c(C(=O)Nc2ccc(Oc3ccnc4[nH]ccc34)c(F)c2)nnn1-c1ccccc1", "IC50 / nM": 350}
{"sample smiles": "Cc1c(C(=O)Nc2ccc(Oc3ccnc4[nH]ccc34)cc2)nnn1-c1ccc(Cl)c(C(F)(F)F)c1", "IC50 / nM": 8410}

Consider the additional compound presented here.
The value of IC50 measured for the compound `O=C(Nc1ccc(Oc2ccnc3[nH]ccc23)cc1)c1nnn(-c2ccc(F)cc2)c1C(F)(F)F` turned out to be 210

* * *

- assay name: Cytotoxicity against human PC3 cells assessed as reduction in cell growth after 72 hrs by MTT assay
- Format: functional, cell-based
- measurement parameters: PC-3, 72 h
Measured pIC50, listed per entry for reference.
Recall that pIC50 is obtained by taking minus log10 of the concentration measured in molar.

Sample records with pIC50:
{"sample smiles": "O=C(Nc1ccc(Oc2ccnc3[nH]ccc23)c(F)c1)c1nnn(-c2ccc(F)c(F)c2)c1C(F)(F)F", "pIC50": 5.61}
{"sample smiles": "Cc1c(C(=O)Nc2ccc(Oc3ccnc4[nH]ccc34)cc2)nnn1-c1ccccc1", "pIC50": 5.14}
{"sample smiles": "COc1ccc(-n2nnc(C(=O)Nc3ccc(Oc4ccnc5[nH]ccc45)c(F)c3)c2C(F)(F)F)cc1", "pIC50": 5.73}
{"sample smiles": "O=C(Nc1ccc(Oc2ccnc3[nH]ccc23)cc1)c1nnn(-c2ccc(F)cc2)c1C(F)(F)F", "pIC50": 5.55}
{"sample smiles": "Cc1c(C(=O)Nc2ccc(Oc3ccnc4[nH]ccc34)c(F)c2)nnn1-c1ccccc1F", "pIC50": 5.49}
{"sample smiles": "O=C(Nc1ccc(Oc2ccnc3[nH]ccc23)c(F)c1)c1nnn(-c2ccccc2)c1C(F)(F)F", "pIC50": 5.63}
{"sample smiles": "Cc1c(C(=O)Nc2ccc(Oc3ccnc4[nH]ccc34)c(F)c2)nnn1-c1ccc(F)cc1", "pIC50": 5.36}
{"sample smiles": "O=C(Nc1ccc(Oc2ccnc3[nH]ccc23)c(F)c1)c1nnn(-c2ccc(F)cc2)c1C(F)(F)F", "pIC50": 5.82}
{"sample smiles": "Cc1c(C(=O)Nc2ccc(Oc3ccnc4[nH]ccc34)cc2)nnn1-c1ccc(F)c(Cl)c1", "pIC50": 4.90}

Given item `O=C(Nc1ccc(Oc2ccnc3[nH]ccc23)cc1)c1nnn(-c2ccccc2F)c1C(F)(F)F` , the value recorded as its pIC50 is 5.43
